meta.source: paper PMC8602723

- System: S. aureus (ATCC 6538)
- Experiment: Microbial susceptibility test (growth inhibition)
- Assay type: cell-based
- Applied conditions: Staphylococcus aureus, ATCC6538; S. aureus, 24 h of exposure; 95% confidence range in brackets; read-out: IC50 bacterial growth inhibition
Readout kind: IC50 (µM)
Write the value in µM as a bare number.

QUERY: What measured IC50 goes with C=C(C)[C@@H]1CCC(C)=C[C@H]1c1c(O)cc(CCCCC)cc1O [CBD, Cannabidiol] ?
RESULT: 10.3

----------
- Tested on: Caco-2 cells
- Experiment: BrdU-ELISA (DNA synthesis inhibition)
- Assay type: cell-based, human
- Applied conditions: Homo sapiens; Caco-2, 72 h exposure; 95% confidence interval in brackets; read-out: IC50 BrdU-ELISA
Readout kind: pIC50
pIC50 field: float, defined as -log10 of concentration (mol/L).

QUERY: What measured pIC50 goes with `C=C(C)[C@@H]1CCC(C)=C[C@H]1c1c(O)cc(CCCCC)cc1O` ?
RESULT: 4.48
